Assay: Rat hepatocyte metabolic stability
Type: in vitro ADME
Settings: rat hepatocytes; read-out: rat hepatocytes h Clintr (μL/min/10^6 cells)
The following compounds are listed with their measured hepatocyte CLint values.
quantity kind: hepatocyte CLint (µL/min/1e6 cells)

- C#CC(=O)N1[C@@H](CC2CC2)Cc2c([nH]c3ccccc23)[C@@H]1c1ccc(NC23CC4CC(CC(C4)C2)C3)cc1: 20
- C#CC(=O)N1[C@@H](CCCC)Cc2c([nH]c3c(F)cc(F)cc23)[C@@H]1c1ccc(NC(=O)OCCCCC)cc1: 18
- O=C(CCl)N1[C@@H](CC2CC2)Cc2c([nH]c3ccccc23)[C@@H]1c1ccc(NC23CC4CC(CC(C4)C2)C3)cc1: 26
- C#CC(=O)N1[C@@H](CCCC)Cc2c([nH]c3c(F)cc(F)cc23)[C@@H]1c1ccccn1: 174

====

Test system: 786-O
Assay: Cell proliferation (Alamar Blue) assay, 786-O
Type: cell-based, human
Details: Homo sapiens, 786-0, 24 h, Table C-3, 786-O cells
quantity kind: log10 IC50 (log10 of the value in µM)

- C#CC(=O)N1[C@@H](CCCC)Cc2c([nH]c3c(F)cc(F)cc23)[C@@H]1CCCC [Compound C-4]: -1.32
- C#CC(=O)N1[C@@H](CCCC)Cc2c([nH]c3c(F)cc(F)cc23)[C@@H]1CCC [Compound C-3]: -0.85
- C#CC(=O)N1[C@@H](CCCC)Cc2cc(OC)ccc2[C@]1(C)c1ccc(NC23CC4CC(CC(C4)C2)C3)cc1 [Compound C-35]: -0.35
- C#CC(=O)N1[C@@H](C)Cc2c([nH]c3ccccc23)[C@]1(C)c1ccc(F)cc1 [Compound C-37]: -1.77
- C#CC(=O)N1CCc2c([nH]c3ccccc23)C1(C)c1ccc(F)cc1 (centres unmarked) [Compound C-19]: 0.37
- CC1(c2ccc(F)cc2)c2[nH]c3ccccc3c2CCN1C(=O)CCl (centres unmarked) [Compound C-20]: 0.65
- CCCC[C@H]1Cc2c([nH]c3ccccc23)[C@](C)(c2ccc(F)cc2)N1C(=O)CCl [Compound C-14]: -1.77
- C[C@H]1Cc2c([nH]c3ccccc23)[C@](C)(c2ccc(F)cc2)N1C(=O)CCl [Compound C-18]: -0.36

====

System: SJSA-1
Experiment: Cell proliferation (Alamar Blue) assay, SJSA-1
Format: cell-based, human
Details: Homo sapiens, SJSA-1, 24 h, Table B-3, head prints SJSB-1, 24 h, read-out: IC50 (μM) SJSB-1
# note: exactly 0.02 µM is not below, so it is FALSE; use TRUE for IC50 strictly under it

- C#CC(=O)N1[C@@H](CCCC)Cc2c([nH]c3ccccc23)[C@@H]1c1ccc(C(=O)NCCOC)cc1 [Compound B-3]: TRUE
- CCCC[C@H]1Cc2c([nH]c3ccccc23)[C@H](c2ccc(C(=O)NC34CC5CC(CC(C5)C3)C4)cc2)N1C(=O)CCl [Compound B-1]: TRUE
- C#CC(=O)N1[C@@H](CCCC)Cc2c(n(CC#N)c3c(F)cc(F)cc23)[C@@H]1c1ccc(NC(=O)OCCCCC)cc1 [Compound B-97]: FALSE
- C#CC(=O)N1[C@@H](CCCC)Cc2c([nH]c3c(F)cc(F)cc23)[C@@H]1c1ccc(N2CCC2)cc1 [Compound B-59]: TRUE
- C#CC(=O)N1[C@@H](CCCC)Cc2c([nH]c3c(F)cc(F)cc23)[C@@H]1CCCC [Compound B-74]: FALSE
- C#CC(=O)N1[C@@H](CCCC)Cc2c([nH]c3c(F)cc(F)cc23)[C@@H]1C(C)C [Compound B-72]: FALSE
- C#CC(=O)N1[C@@H](CCCC)Cc2c([nH]c3c(F)cc(F)cc23)[C@@H]1c1ccc(NC(=O)CCCCC(=O)O)cc1 [Compound B-87]: FALSE
- C#CC(=O)N1[C@@H](CCCC)Cc2c([nH]c3c(F)cc(F)cc23)[C@@H]1COCCOC [Compound B-80]: FALSE
- C#CC(=O)N1[C@@H](c2ccc(NC34CC5CC(CC(C5)C3)C4)cc2)c2[nH]c3ccccc3c2C[C@@H]1C(=O)OC [Compound B-6]: FALSE
- C#CC(=O)N1[C@@H](CCCC)Cc2c([nH]c3ccccc23)[C@@H]1c1ccc(C(=O)NC23CC4CC(CC(C4)C2)C3)cc1 [Compound B-7]: TRUE
- C#CC(=O)N1[C@@H](CCCC)Cc2c([nH]c3ccccc23)[C@@H]1c1ccc(NC2CCCCC2)cc1 [Compound B-71]: FALSE
- C#CC(=O)N1[C@@H](CCCC)Cc2c([nH]c3c(F)cc(F)cc23)[C@@H]1CCCCCCCC [Compound B-79]: FALSE
- C#CC(=O)N1[C@@H](CCCC)Cc2c([nH]c3c(F)cc(F)cc23)[C@@H]1C12CC(NC(=O)OCCCCC)(C1)C2 [Compound B-84]: FALSE
- C#CC(=O)N1[C@@H](CCCC)Cc2c([nH]c3c(F)cc(F)cc23)[C@@H]1c1ccccn1 [Compound B-31]: TRUE
- C#CC(=O)N1[C@@H](CCCC)Cc2c([nH]c3c(F)cc(F)cc23)[C@@H]1c1ccc(NC23CC4CC(CC(C4)C2)C3)cc1 [Compound B-65]: TRUE
- CCCC[C@H]1Cc2c([nH]c3c(F)cc(F)cc23)[C@H](C23CC(N)(C2)C3)N1C(=O)CCl [Compound B-83]: FALSE

meta.source: patent US20220227765A1
